# Measured Target: rat NR1/NR2B receptor (Rattus norvegicus (Rat), UniProt P35439+Q00960)
# Sequence (Q00960 27-1482, other chains not shown): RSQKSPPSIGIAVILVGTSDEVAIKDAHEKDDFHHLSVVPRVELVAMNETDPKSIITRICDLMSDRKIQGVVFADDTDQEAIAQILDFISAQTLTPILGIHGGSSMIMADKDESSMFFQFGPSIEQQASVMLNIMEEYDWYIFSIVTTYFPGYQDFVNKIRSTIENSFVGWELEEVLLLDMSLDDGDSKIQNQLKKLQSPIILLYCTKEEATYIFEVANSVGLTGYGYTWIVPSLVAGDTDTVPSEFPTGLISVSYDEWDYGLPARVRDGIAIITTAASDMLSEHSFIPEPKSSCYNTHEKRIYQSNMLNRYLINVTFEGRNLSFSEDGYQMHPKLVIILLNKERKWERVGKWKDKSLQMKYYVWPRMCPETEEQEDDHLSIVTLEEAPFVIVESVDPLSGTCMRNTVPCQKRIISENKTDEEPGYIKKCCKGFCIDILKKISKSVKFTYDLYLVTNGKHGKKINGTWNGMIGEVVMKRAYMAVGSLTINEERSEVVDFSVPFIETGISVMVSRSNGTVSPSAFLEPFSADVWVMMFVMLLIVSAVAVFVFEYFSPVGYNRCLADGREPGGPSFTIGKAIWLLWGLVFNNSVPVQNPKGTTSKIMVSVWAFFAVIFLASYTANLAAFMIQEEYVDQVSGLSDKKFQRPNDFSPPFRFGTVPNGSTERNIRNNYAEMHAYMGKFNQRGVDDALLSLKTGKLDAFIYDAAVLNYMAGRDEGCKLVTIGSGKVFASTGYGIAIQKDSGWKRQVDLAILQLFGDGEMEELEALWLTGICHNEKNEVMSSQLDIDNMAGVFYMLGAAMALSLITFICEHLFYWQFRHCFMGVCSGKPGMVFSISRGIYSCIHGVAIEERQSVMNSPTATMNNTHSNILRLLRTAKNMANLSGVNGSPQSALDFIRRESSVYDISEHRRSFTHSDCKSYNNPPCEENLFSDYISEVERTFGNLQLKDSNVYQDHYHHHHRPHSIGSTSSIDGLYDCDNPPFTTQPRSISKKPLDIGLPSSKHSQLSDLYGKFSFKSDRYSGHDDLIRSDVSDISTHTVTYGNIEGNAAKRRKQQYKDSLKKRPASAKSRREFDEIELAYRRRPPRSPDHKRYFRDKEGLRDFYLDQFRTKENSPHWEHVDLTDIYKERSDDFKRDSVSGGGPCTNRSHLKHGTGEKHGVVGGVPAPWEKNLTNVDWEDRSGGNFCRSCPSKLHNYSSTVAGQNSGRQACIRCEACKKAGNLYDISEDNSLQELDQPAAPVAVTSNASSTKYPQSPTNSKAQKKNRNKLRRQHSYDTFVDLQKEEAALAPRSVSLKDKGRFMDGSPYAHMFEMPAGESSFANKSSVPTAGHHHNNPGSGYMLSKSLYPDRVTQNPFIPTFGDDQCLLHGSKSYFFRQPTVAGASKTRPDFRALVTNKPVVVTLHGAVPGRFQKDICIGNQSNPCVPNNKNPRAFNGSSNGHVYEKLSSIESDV
# Protocol Details: NR2B binding assay: inhibition of specific [3H]-Ifenprodil binding to the rat NR1/NR2B receptor
# Condition Label: rat brain membranes, Hill-plot 2-parameter-model
# Procedure: Inhibition of Specific Binding to the Rat NR1/NR2B Receptor Male Wistar rats (180 to 200 g) were killed by suffocation in a CO2 chamber for two minutes. […] The incubation was terminated by filtration of the membrane preparations using Filtermat B (Pharmacia, Uppsala Sweden) and a Micro Cell Harvester (Skatron, Lier, Norway). The Filtermat B had been presoaked with 1% polyethylene imine and carefully washed with 50 mM Tris/HCl-buffer pH 7.7 after the filtration to separate free and bound radioactivity. […]
Exercise: for every item that follows, state its recorded pIC50.
In textbook form, pIC50 equals minus log to base ten of the concentration in mol/L.

I'm curious: which pIC50 was measured for `Cn1nccc1Cc1cn(-c2ccc(F)c(Cl)c2)nn1` tested on rat NR1/NR2B receptor (Rattus norvegicus (Rat), UniProt P35439+Q00960)?
5.36

What reported pIC50 corresponds to `Cc1nccn1Cc1cn(-c2cccc(C(F)(F)F)c2)nn1` on rat NR1/NR2B receptor (Rattus norvegicus (Rat), UniProt P35439+Q00960)?
7.76

Notebook: pull reported pIC50 for rat NR1/NR2B receptor (Rattus norvegicus (Rat), UniProt P35439+Q00960), entry `Cc1nccn1Cc1cn(-c2ccc(F)c(OC(F)F)c2)nn1`
8.72

Test system rat NR1/NR2B receptor (Rattus norvegicus (Rat), UniProt P35439+Q00960); read-out pIC50; what value for `CCCCc1nccn1Cc1cn(-c2ccc(Cl)cc2)nn1` ?
7.41

Form field - read-out: pIC50; system: rat NR1/NR2B receptor (Rattus norvegicus (Rat), UniProt P35439+Q00960); submitted item: `Clc1ccc(-n2cc(Cn3ccnc3C3CC3)nn2)cc1Cl`
7.75

Given the entry `Fc1ccc(-n2cc(Cn3ccnc3C3CC3)nn2)cc1C(F)F` , what pIC50 was observed with rat NR1/NR2B receptor (Rattus norvegicus (Rat), UniProt P35439+Q00960)?
7.79

Item: `CC(C)c1nccn1Cc1cn(-c2ccc(Cl)c(Cl)c2)nn1` Test system: rat NR1/NR2B receptor (Rattus norvegicus (Rat), UniProt P35439+Q00960) Read-out: pIC50 Value: ?
8.13

Form field: pIC50 recorded for `Cc1cc(-n2cc(Cn3ccnc3CCF)nn2)ccc1Cl` with rat NR1/NR2B receptor (Rattus norvegicus (Rat), UniProt P35439+Q00960) (enter value)
7.87

I'm curious: which pIC50 was measured for `FCCc1nccn1Cc1cn(-c2ccc(Cl)c(OC(F)F)c2)nn1` tested on rat NR1/NR2B receptor (Rattus norvegicus (Rat), UniProt P35439+Q00960)?
8.22

Report pIC50 for `OCCc1nccn1Cn1cc(-c2ccc(S(F)(F)(F)(F)F)cc2)nn1` tested on rat NR1/NR2B receptor (Rattus norvegicus (Rat), UniProt P35439+Q00960).
6.58

# get_value(readout= pIC50, system= rat NR1/NR2B receptor (Rattus norvegicus (Rat), UniProt P35439+Q00960)) for `CC(C)c1nccn1Cc1cn(-c2ccc(Cl)c(C(F)F)c2)nn1`
8.28

Request: pIC50, test system rat NR1/NR2B receptor (Rattus norvegicus (Rat), UniProt P35439+Q00960), entry `CC(C)(C)c1nccn1Cc1cn(-c2ccc(F)c(C(F)F)c2)nn1`
6.88

Observed pIC50 on rat NR1/NR2B receptor (Rattus norvegicus (Rat), UniProt P35439+Q00960) for `FC(F)(F)c1cc(-n2cc(Cn3ccnc3C3CC3)nn2)ccc1Cl` , please.
7.42

State its pIC50 on rat NR1/NR2B receptor (Rattus norvegicus (Rat), UniProt P35439+Q00960): `COc1cc(F)ccc1-n1cc(Cn2ccnc2C2CC2)nn1`
5.48

State its pIC50 on rat NR1/NR2B receptor (Rattus norvegicus (Rat), UniProt P35439+Q00960): Nc1nccn1Cc1cn(-c2ccc(F)c(C(F)F)c2)nn1 [Example 113B]
9.32

Give recorded pIC50 with rat NR1/NR2B receptor (Rattus norvegicus (Rat), UniProt P35439+Q00960) for the following compound: `CCc1nccn1Cc1cn(-c2ccc(Cl)c(OC(F)F)c2)nn1`
8.80

# get_value(readout= pIC50, system= rat NR1/NR2B receptor (Rattus norvegicus (Rat), UniProt P35439+Q00960)) for `CCCc1nccn1Cc1cn(-c2ccc(Cl)cc2)nn1`
7.33

# query: pIC50 | item `Cc1nccn1Cc1cn(-c2ccc(Cl)c(Cl)c2)nn1` | system: rat NR1/NR2B receptor (Rattus norvegicus (Rat), UniProt P35439+Q00960)
8.31

Lab note: need pIC50 for `OCCc1nccn1Cc1cn(-c2ccc(Cl)c(Cl)c2)nn1` on rat NR1/NR2B receptor (Rattus norvegicus (Rat), UniProt P35439+Q00960), anyone have it?
7.76

Give the reported pIC50 for `CCc1nccn1Cc1cn(-c2ccc(Cl)c(C(F)F)c2)nn1` (system: rat NR1/NR2B receptor (Rattus norvegicus (Rat), UniProt P35439+Q00960)).
8.61

All values here come from patent US9981950B2.
